measuredTarget: HDAC2 (Homo sapiens)
Sequence (Q92769 whole entry): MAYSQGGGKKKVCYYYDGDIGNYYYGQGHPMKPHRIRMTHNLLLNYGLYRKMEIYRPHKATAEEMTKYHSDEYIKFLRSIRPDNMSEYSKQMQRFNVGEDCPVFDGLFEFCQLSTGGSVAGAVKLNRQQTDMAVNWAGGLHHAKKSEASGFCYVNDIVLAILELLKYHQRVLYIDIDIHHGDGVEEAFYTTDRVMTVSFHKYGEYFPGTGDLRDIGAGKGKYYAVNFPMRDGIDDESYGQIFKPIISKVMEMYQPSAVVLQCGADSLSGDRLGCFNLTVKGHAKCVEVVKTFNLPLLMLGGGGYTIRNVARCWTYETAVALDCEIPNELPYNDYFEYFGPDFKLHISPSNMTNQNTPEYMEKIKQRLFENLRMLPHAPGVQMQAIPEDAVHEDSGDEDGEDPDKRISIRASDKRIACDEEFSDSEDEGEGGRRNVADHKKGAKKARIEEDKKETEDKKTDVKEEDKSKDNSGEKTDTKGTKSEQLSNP
runDescription: HDAC biochemical assay of P5-P12 (Table P1)
Parameters: The recombinant, full-length HDAC protein (BPS Biosciences) was incubated; purchased BPS Biosciences
conditionDescription: Table P1
readoutName: log10 IC50 (log10 of the value in nM)

molecule="CC(C)[C@@H]1NC(=O)[C@]2(C)CSC(=N2)c2ccnc(c2)CNC(=O)C[C@@H](/C=C/CCS)OC1=O [Compound P8, Depsipeptide Pyridyl “OUT” Thiol]" readoutnumber=0.65
molecule="CCCCCCCC(=O)SCCC=CC1CC(=O)NCc2cc(ccn2)C2=NC(C)(CS2)C(=O)NC(C(C)C)C(=O)O1 (stereo not shown) [Compound P7, Depsipeptide Pyridyl “OUT”]" readoutnumber=2.82
molecule="CCCCCCCC(=O)SCCC=CC1CC(=O)NCc2cccc(n2)C2=NC(C)(CS2)C(=O)NC(C(C)C)C(=O)O1 (stereo not shown) [Compound P5, Depsipeptide Pyridyl “IN”]" readoutnumber=2.54
molecule="CC(C)[C@@H]1NC(=O)[C@]2(C)CSC(=N2)c2cccc(n2)CNC(=O)C[C@@H](/C=C/CCS)NC1=O [Compound P10, Peptide Isostere Pyridyl “IN” Thiol]" readoutnumber=1.84
molecule="CCCCCCCC(=O)SCCC=CC1CC(=O)NCc2cccc(n2)C2=NC(C)(CS2)C(=O)NC(C(C)C)C(=O)N1 (stereo not shown) [Compound P9, Peptide Isostere Pyridyl “IN”]" readoutnumber=2.67
molecule="CCCCCCCC(=O)SCC/C=C/[C@@H]1CC(=O)NCc2cc(ccn2)C2=N[C@@](C)(CS2)C(=O)N[C@@H](C(C)C)C(=O)N1 [Compound P11, Peptide Isostere Pyridyl “OUT”]" readoutnumber=3.09
molecule="CC(C)[C@@H]1NC(=O)[C@]2(C)CSC(=N2)c2ccnc(c2)CNC(=O)C[C@@H](/C=C/CCS)NC1=O [Compound P12, Peptide Isostere Pyridyl “OUT” Thiol]" readoutnumber=1.32

###

measuredTarget: HDAC2 (Homo sapiens)
runDescription: HDAC2 inhibition, trypsin-coupled kinetic fluorescence homogeneous assay (Example 10)
Type: biochemical
Design: The recombinant, full-length HDAC protein (BPS Biosciences) was incubated; purchased BPS Biosciences
conditionDescription: Conc (uM); logistic curve fit of activity versus concentration; some fits reached max iterations; read-out: X50
readoutName: IC50 (µM)

compound=CC(C)[C@@H]1NC(=O)[C@]2(C)CSC(=N2)c2csc(n2)CNC(=O)C[C@@H](/C=C/CCCCS)OC1=O readoutnumber=0.0785
compound=C[C@@]12CSC(=N1)c1csc(n1)CNC(=O)C[C@@H](/C=C/CCS)OC(=O)[C@@H]1CCCN1C2=O readoutnumber=0.773
compound="CC(=O)N[C@@H](CC(C)C)C(=O)N[C@@H](CC(C)C)C(=O)N[C@H](C=O)CCCNC(=N)N [Leupeptin, reference compound]" readoutnumber=0.308

###

System: melanoma cell lines
conditionDescription: five-dose
Listed compounds paired with reported Percent of Cell Lines Impacted (%), LC50, Melanoma
readoutName: Percent of Cell Lines Impacted (%), LC50, Melanoma

compound=CCCCCCCC(=O)SCC/C=C/[C@@H]1CC(=O)NCc2cc(ccn2)C2=N[C@@](C)(CS2)C(=O)N[C@@H](C(C)C)C(=O)O1 readoutnumber=38
compound="CCCCCCCC(=O)SCC/C=C/[C@@H]1CC(=O)NCc2nc(cs2)C2=N[C@@](C)(CS2)C(=O)N[C@@H](C(C)C)C(=O)O1 [Largazole, largazole, reference compound]" readoutnumber=33
compound=CCCCCCCC(=O)SCC/C=C/[C@@H]1CC(=O)NCc2nc(cs2)C2=N[C@@](C)(CS2)C(=O)N[C@@H](C(C)C)C(=O)N1 readoutnumber=25
compound=CCCCCCCC(=O)SCC/C=C/[C@@H]1CC(=O)NCc2nc(co2)C2=N[C@@](C)(CS2)C(=O)N[C@@H](C(C)C)C(=O)O1 readoutnumber=38
